This collection of values is drawn from ChEMBL document CHEMBL1759888.

Experiment: Lipophilicity, log P of the compound
Assay type: physicochemical
Settings: octanol/water
PARAMETER: logP
Kindly provide the number alone.

Here's what some known entries look like.
CCOC(=O)c1c2n(c(=N)c3c(F)c(C#N)c(F)c(Cl)c13)CCN2; 2.68
COc1ccc(C(=O)c2c3n(c(=N)c4c(F)c(C#N)c(F)c(Cl)c24)CCCN3)cc1; 3.34
COc1ccc(C(=O)c2c3n(c(=N)c4c(F)c(C#N)c(F)c(Cl)c24)CCO3)cc1; 3.21
CCOC(=O)c1c2n(c(=N)c3c(Cl)c(C#N)c(Cl)c(Cl)c13)CCN2; 3.44
CC(=O)c1c2n(c(=N)c3c(F)c(C#N)c(F)c(Cl)c13)CCN2; 1.67

[Q] Can you look up the measured logP of N#Cc1c(F)c(Cl)c2c(C(=O)c3ccc(Cl)cc3)c3n(c(=N)c2c1F)CCCN3 for me?
[A] 4.08

[Q] Next record, please: N#Cc1c(F)c(Cl)c2c(C(=O)c3ccccc3)c3n(c(=N)c2c1F)CCO3
[A] 3.21

[Q] Next record, please: N#Cc1c(F)c(F)c2c(C(=O)c3ccccc3)c3n(c(=N)c2c1F)CCN3
[A] 2.63

[Q] Next record, please: CC(=O)c1c2n(c(=N)c3c(F)c(C#N)c(F)c(F)c13)CCN2
[A] 1.03

[Q] Next record, please: N#Cc1c(F)c(Cl)c2c(C(=O)c3ccccc3)c3n(c(=N)c2c1F)CCN3
[A] 3.27
